Value source: paper PMC4505066

# ASSAYED_SYSTEM: T1, HDAC4 catalytic domain H675A
# T1 chain: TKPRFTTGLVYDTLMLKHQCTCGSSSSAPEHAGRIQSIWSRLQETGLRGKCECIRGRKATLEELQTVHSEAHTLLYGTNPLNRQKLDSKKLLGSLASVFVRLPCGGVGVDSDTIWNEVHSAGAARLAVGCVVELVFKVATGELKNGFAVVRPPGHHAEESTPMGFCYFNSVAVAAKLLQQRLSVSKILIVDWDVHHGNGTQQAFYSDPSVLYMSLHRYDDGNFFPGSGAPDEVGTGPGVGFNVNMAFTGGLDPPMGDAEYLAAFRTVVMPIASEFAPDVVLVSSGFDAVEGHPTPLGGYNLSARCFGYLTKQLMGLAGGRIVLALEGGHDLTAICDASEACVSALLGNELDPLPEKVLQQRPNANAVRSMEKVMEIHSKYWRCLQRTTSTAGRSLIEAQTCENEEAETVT
# TEST_PROTOCOL: FP
No end group written: not given here.
OBSERVED_PROPERTY: Kd

>>> result("C(BODIPY‑TMR)PRPLKEGSITQGTPLKYDTG")
"> 1000 µM"
